Biological target: minimal U1 snRNP without U1-C (CoSMoS);U1-C zinc finger (U1-C_61) (human;human, UniProt P08621;P62316;P62318;P14678;P62306;P62304;P62308;P09234 …, internal_change|)
Experiment: single-molecule CoSMoS

binder	Kd, nM
ACACAGAGUAAGUUAACA (ssRNA) [9bp-1A]	1.2
